# procedure-details: Stability in TPGS/PG over 22 h
# Assay type: physicochemical
# test-context: entacapone formed in TPGS/PG, 8 h
measured-attribute: Amount of entacapone (mg/mL)

(I) CCCC(C)OC(=O)Oc1cc(/C=C(\C#N)C(=O)N(CC)CC)cc([N+](=O)[O-])c1O (stereo not shown)
(II) CCCCC(CC)COC(=O)Oc1cc(/C=C(\C#N)C(=O)N(CC)CC)cc([N+](=O)[O-])c1O (stereo not shown)
(III) CCN(CC)C(=O)/C(C#N)=C/c1cc(OC(=O)OCC2CCCCC2)c(O)c([N+](=O)[O-])c1
Request: Could you list the above molecules by Amount of entacapone, going from the biggest number down? Answer with the labels in sequence, matching the requested order.
Response: II, III, I

Values were extracted from patent US20080103191A1.
